experiment: NCI Yeast Anticancer Drug Screen. Data for the bub3 strain (AID 167); conditions: S. cerevisiae bub3 mutant strain, at 50.0 µM
About 79,000 compounds went through this panel and 15% of them were active in at least one assay; those are over-represented in the sample as a whole. Active and inactive are the calls of the source. No stated cut-off is given here; in the data, active means growth inhibition above about 70%; inactive means the rest.
// one of Yes (active), No (inactive), no free text

Would you please look over these solved cases?
> print(dat)
                                  compound  class.label
1  COc1cccc2c(C(=O)O)cc(-c3ccc(Cl)cc3)nc12           No
2       COc1ccc(CSC(=S)Nc2ccc(F)c(C)c2)cc1           No
3                          Cc1cc(Br)ccc1Br           No
4             Nc1ccc2nc(-c3ccccc3)[nH]c2c1           No
5                   CCC(=O)OCCCCCCOC(=O)CC           No

Problem: Per the records of this test, what outcome belongs to `CC(=O)c1c(C)[nH]c(C(=O)O)c1C` ?
Result: No

Problem: Next compound up: O=S(/N=C/c1ccccc1)c1ccc(Cl)cc1 (centres undefined)
Result: No

Problem: Next compound up: `CCCCCCCCCCCCN1CCCN(CCCCCCCCCCCC)CC1`
Result: Yes

Problem: Next compound up: `COc1cccc(NC(=O)NC(C)(C)C)c1`
Result: No

---

assay: NCI Yeast Anticancer Drug Screen. Data for the mec2-1 strain (AID 157); details: S. cerevisiae mec2-1 strain, at 50.0 µM, active compounds read high
The panel holds about 79,000 compounds, 15% with a hit somewhere; the sample as a whole holds those more often.
Returns Fulfilled if the recorded growth inhibition is greater than or equal to 10%, and Not fulfilled otherwise.

> print(dat)
                           substance.smiles    class.label
1  CC(C)(NC(=O)OC12CC3CC(CC(C3)C1)C2)C(=O)O  Not fulfilled
2          C=CCN(CC=C)c1nc(N)c2ccc(Cl)cc2n1  Not fulfilled
3                  OCc1cc2ccc3ccccc3c2[nH]1      Fulfilled
4  O=C1OC(/C=C/c2ccccc2)=NC/1=C\C=C\c1ccccc1      Fulfilled

# ---- query compound ----
Problem: Reported growth inhibition at or above 10%? `CCOC(=N)Cc1ccccc1`
Result: Fulfilled

---

assay: NCI Yeast Anticancer Drug Screen. Data for the mec2-1 strain (AID 157); conditions: S. cerevisiae mec2-1 strain, at 50.0 µM, active compounds read high
This is part of a sample that, as a whole, favours compounds with a hit. Of some 79,000 tested, about 15% had one in any assay. Where a SMILES comes first, the peptide text is derived from it. The star is where a group is joined. Boc = CC(C)(C)OC(=O)*; NHNH2 = NN*
Parameter Measured: growth inhibition (%)
Note: unit % is implicit; provide only the numeric part.

Molecule	Unit String	growth inhibition
NC(=O)c1nnsc1NC=O	%	7.95
OC(CNc1ccc(Cl)cc1)CN1CCOCC1 (stereo not given)	%	15.2
CCC(C)C(NC(=O)C(Cc1c[nH]c2ccccc12)NC(=O)OC(C)(C)C)C(=O)NN (stereo not drawn) (Boc-Trp-Ile-NHNH2; configuration not given here)	%	3.7
CC1(C)OC(=O)C=C(O)O1.CC1(C)OC(=O)C=C(O)O1.CCO.Oc1ccc2c(c1)CCC2.[Ti]	%	-13.5
S=C(Oc1ccccc1)Oc1ccc2ccccc2c1	%	-6.8
CC(C)(C)NC(=O)Oc1ccc(-c2ccccc2)cc1Cl	%	99.5
CCOC(=O)C1/C(=N\N=C2\c3c(nnp3N(CCOS(C)(=O)=O)CCOS(C)(=O)=O)C(C(=O)OCC)C(c3ccc(OC(C)=O)cc3)C2C(=O)OCC)c2c(nnp2N(CCOS(C)(=O)=O)CCOS(C)(=O)=O)C(C(=O)OCC)C1c1ccc(OC(C)=O)cc1 (stereo not given)	%	-0.05
CCOC(=O)C(=O)Cc1ccccn1	%	-6.55
O=S(=O)(Oc1cccc2ccccc12)c1ccccc1	%	-2.5
N/C(CC/C(N)=N\O)=N\O	%	-15.8

Problem: GET /values?readout=growth inhibition&item= `CC1=NNC(=O)C1`
Result: -0.4

Problem: Next molecule up: CC(O)CN1CNC(=S)NC1 (stereo not given)
Result: -39.3

Problem: Next molecule up: `CC(=O)O[C@]1(C(C)=O)CC[C@H]2[C@@H]3C[C@H](C)C4=CC(=O)C=C[C@]4(C)[C@@]3(F)[C@@H](O)C[C@@]21C`
Result: -35.4

Problem: Next molecule up: `NC(=S)NNC(=O)c1ccccc1`
Result: -10.6

Problem: Next molecule up: `COc1ccc(Cc2cc3c(cc2OCCOC(C)=O)OCO3)cc1`
Result: 11.3
